Experiment: Effective concentration for 50% protection of HIV-induced cytopathogenicity in MT-4 cells on the MTT assay
Give measured EC50 for each item. Keep answers brief.
Give bare numbers, in nM.

Could you tell me EC50 for each of these compounds? They are listed below.
1. NCCCC[C@@H]1NC(=O)[C@H](CCCN=C(N)N)NC(=O)[C@H](Cc2ccc(O)cc2)NC(=O)[C@@H](NC(=O)[C@@H](NC(=O)[C@H](CCCN=C(N)N)NC(=O)[C@@H](N)CCCN=C(N)N)c2ccc3ccccc3c2)CSSC[C@@H](C(=O)N[C@@H](CCCN=C(N)N)C(=O)O)NC(=O)[C@H](CCCNC(N)=O)NC(=O)[C@H](CCCN=C(N)N)NC(=O)[C@H](Cc2ccc(O)cc2)NC(=O)[C@@H]2CCCN2C(=O)[C@@H](CCCCN)NC1=O
2. Nc1ccn([C@H]2CC[C@@H](CO)O2)c(=O)n1
3. NCCCC[C@@H]1NC(=O)[C@H](CCCNC(N)=O)NC(=O)[C@H](Cc2ccc(O)cc2)NC(=O)[C@@H](NC(=O)[C@@H](NC(=O)[C@H](CCCN=C(N)N)NC(=O)[C@@H](N)CCCNC(N)=O)c2ccc3ccccc3c2)CSSC[C@@H](C(=O)N[C@@H](CCCN=C(N)N)C(=O)O)NC(=O)[C@H](CCCNC(N)=O)NC(=O)[C@H](CCCN=C(N)N)NC(=O)[C@H](Cc2ccc(O)cc2)NC(=O)[C@@H]2CCCN2C(=O)[C@@H](CCCCN)NC1=O [Derivative of T140 peptide]
4. NCCCC[C@@H]1NC(=O)[C@H](CCCNC(N)=O)NC(=O)[C@H](Cc2ccc(O)cc2)NC(=O)[C@@H](NC(=O)[C@@H](NC(=O)[C@H](CCCN=C(N)N)NC(=O)[C@@H](N)CCCN=C(N)N)c2ccc3ccccc3c2)CSSC[C@@H](C(=O)N[C@@H](CCCN=C(N)N)C(=O)O)NC(=O)[C@H](CCCNC(N)=O)NC(=O)[C@H](CCCNC(N)=O)NC(=O)[C@H](Cc2ccc(O)cc2)NC(=O)[C@@H]2CCCN2C(=O)[C@@H](CCCCN)NC1=O [Derivative of T140 peptide]
5. NCCCC[C@@H]1NC(=O)[C@H](CCCN=C(N)N)NC(=O)[C@H](Cc2ccc(O)cc2)NC(=O)[C@@H](NC(=O)[C@@H](NC(=O)[C@H](CCCN=C(N)N)NC(=O)[C@@H](N)CCCNC(N)=O)c2ccc3ccccc3c2)CSSC[C@@H](C(=O)N[C@@H](CCCN=C(N)N)C(N)=O)NC(=O)[C@H](CCCNC(N)=O)NC(=O)[C@H](CCCN=C(N)N)NC(=O)[C@H](Cc2ccc(O)cc2)NC(=O)[C@@H]2CCCN2C(=O)[C@@H](CCCNC(N)=O)NC1=O [Derivative of T140 peptide]

Output line:
1. 3.3
2. 88
3. 37
4. 8.9
5. 1.2

Cited source: BindingDB's records for doi:10.1016/s0960-894x(01)00323-7
